Below is a list of entries, each paired with its recorded pKi value.
target: Adenosine receptor A3 (Rattus norvegicus)
Sequence (P28647 whole entry): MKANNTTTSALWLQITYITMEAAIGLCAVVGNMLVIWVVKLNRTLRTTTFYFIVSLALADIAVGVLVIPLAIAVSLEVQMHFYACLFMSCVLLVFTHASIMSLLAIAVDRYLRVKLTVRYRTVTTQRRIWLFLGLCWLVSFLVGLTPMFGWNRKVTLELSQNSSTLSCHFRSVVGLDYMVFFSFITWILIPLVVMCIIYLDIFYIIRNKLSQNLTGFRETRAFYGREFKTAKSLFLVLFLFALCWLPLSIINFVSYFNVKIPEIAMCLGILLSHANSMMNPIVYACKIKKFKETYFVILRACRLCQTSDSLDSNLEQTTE
measurementProtocol: Binding affinity of adenosine derivative for endogenous rat Adenosine A3 receptor of RBL-2H3
pKi: −log10 of the molar value.

>  <compound>
OCC12CC1C(n1cnc3c(NCc4cccc(I)c4)nc(Cl)nc31)C(O)C2O (centres undefined)

>  <target>
Adenosine receptor A3 (Rattus norvegicus)

>  <pKi>
8.54

$$$$
>  <compound>
OC[C@H]1O[C@@H](n2cnc3c(NCc4cccc(I)c4)nc(Cl)nc32)[C@H](O)[C@@H]1O

>  <target>
Adenosine receptor A3 (Rattus norvegicus)

>  <pKi>
8.57

$$$$
>  <compound>
CCCOC(=O)c1c(-c2ccccc2)nc(CC)c(C(=O)SCC)c1CCC

>  <target>
Adenosine receptor A3 (Rattus norvegicus)

>  <pKi>
6.45

$$$$
>  <compound>
O=C1NCC[C@@]12O[C@@H](n1cnc3c(NCc4cccc(I)c4)ncnc31)[C@H](O)[C@@H]2O

>  <target>
Adenosine receptor A3 (Rattus norvegicus)

>  <pKi>
7.29

$$$$
